# system_name: Protein kinase C delta type (Mus musculus)
# Sequence (P28867 whole entry, the tested form may be a part): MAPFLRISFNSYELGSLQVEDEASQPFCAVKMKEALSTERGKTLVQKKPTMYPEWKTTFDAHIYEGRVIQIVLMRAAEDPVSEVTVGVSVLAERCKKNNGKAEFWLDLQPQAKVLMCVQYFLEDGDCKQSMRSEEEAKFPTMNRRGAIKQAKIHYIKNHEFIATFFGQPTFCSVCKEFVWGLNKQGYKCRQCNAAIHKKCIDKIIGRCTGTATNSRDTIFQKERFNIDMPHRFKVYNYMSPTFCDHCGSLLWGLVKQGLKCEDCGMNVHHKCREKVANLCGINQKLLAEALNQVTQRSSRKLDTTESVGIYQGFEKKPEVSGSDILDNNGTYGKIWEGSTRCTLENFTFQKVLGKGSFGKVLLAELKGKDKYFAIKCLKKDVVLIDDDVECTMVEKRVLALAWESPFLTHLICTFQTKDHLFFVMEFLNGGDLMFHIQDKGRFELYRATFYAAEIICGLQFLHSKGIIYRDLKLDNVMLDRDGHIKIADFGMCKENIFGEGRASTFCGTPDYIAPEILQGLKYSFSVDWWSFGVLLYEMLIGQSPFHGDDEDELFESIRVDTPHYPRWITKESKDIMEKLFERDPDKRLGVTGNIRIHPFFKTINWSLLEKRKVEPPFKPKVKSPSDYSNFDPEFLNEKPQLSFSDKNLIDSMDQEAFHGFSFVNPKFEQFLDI
# assay_text: Displacement of [20-3H]PDBu from GST-tagged full-length mouse PKC-delta C1B domain expressed in Escherichia coli after 2 to 30 mins by polyethylene glycol precipitation assay in presence of phosphatidylserine
recorded_endpoint: Kd (µM)

Take a look at these entries with their results.
>>> test_value("CC(C)C(CC(=O)OCC1(CO)C/C(=C\\c2ccc(O)cc2)C(=O)O1)C(C)C (stereo not drawn)")
0.00295
>>> test_value("CC(C)CC(CC(=O)OCC1(CO)C/C(=C\\c2cccc(C(C(=O)OC(C)(C)C)C(=O)OC(C)(C)C)c2)C(=O)O1)CC(C)C (stereo not drawn)")
0.0005
>>> test_value("CC(C)C(CC(=O)OCC1(CO)C/C(=C\\c2ccc(C(=O)O)cc2)C(=O)O1)C(C)C (stereo not drawn)")
0.56
>>> test_value("CC(C)CC(CC(=O)OCC1(CO)C/C(=C\\c2ccc(C(=O)O)cc2)C(=O)O1)CC(C)C (stereo not drawn)")
0.096
>>> test_value("CC(C)CC(CC(=O)OCC1(CO)C/C(=C\\c2ccccc2C(C(=O)OC(C)(C)C)C(=O)OC(C)(C)C)C(=O)O1)CC(C)C (stereo not drawn)")
0.001
>>> test_value("CC(C)CC(CC(=O)OCC1(CO)C/C(=C\\c2cccc(C(=O)O)c2)C(=O)O1)CC(C)C (stereo not drawn)")
0.3

1 = CC(C)(C)C(=O)OCC1(CO)C/C(=C\c2cccc(C(=O)O)c2)C(=O)O1 (stereo not drawn)
2 = CC(C)C(CC(=O)OCC1(CO)C/C(=C\c2cccc(C(=O)O)c2)C(=O)O1)C(C)C (stereo not drawn)
Of the pair 1 and 2 , name the member with the lesser recorded Kd. Record your answer as the label of the chosen record.
1

---

# Species on record: Mus musculus
# assay_text: Selectivity ratio of Ki for GST-tagged mouse PKC-delta C1B domain P11R mutant to Kd for GST-tagged full-length mouse PKC-delta C1B domain
recorded_endpoint: Selectivity ratio

Take a look at these entries with their results.
>>> test_value("CC(C)CC(CC(=O)OCC1(CO)C/C(=C\\c2ccc(C(C(=O)OC(C)(C)C)C(=O)OC(C)(C)C)cc2)C(=O)O1)CC(C)C (stereo not drawn)")
2
>>> test_value("CC(C)CC(CC(=O)OCC1(CO)C/C(=C\\c2cccc(C(C(=O)OC(C)(C)C)C(=O)OC(C)(C)C)c2)C(=O)O1)CC(C)C (stereo not drawn)")
2
>>> test_value("CC(C)C(CC(=O)OCC1(CO)C/C(=C\\c2ccc(C(=O)O)cc2)C(=O)O1)C(C)C (stereo not drawn)")
1.27
>>> test_value("CC(C)CC(CC(=O)OCC1(CO)C/C(=C\\c2ccc(C(=O)O)cc2)C(=O)O1)CC(C)C (stereo not drawn)")
1.25
>>> test_value("CC(C)(C)C(=O)OCC1(CO)C/C(=C\\c2ccc(C(=O)O)cc2)C(=O)O1 (stereo not drawn)")
0.93

P = CC(C)C(CC(=O)OCC1(CO)C/C(=C\c2cccc(O)c2)C(=O)O1)C(C)C (stereo not drawn)
Q = CC(C)CC(CC(=O)OCC1(CO)C/C(=C\c2cccc(C(=O)O)c2)C(=O)O1)CC(C)C (stereo not drawn)
R = CC(C)(C)C(=O)OCC1(CO)C/C(=C\c2cccc(C(=O)O)c2)C(=O)O1 (stereo not drawn)
Rank entries according to their Selectivity ratio, from the largest number down. Returns: the labels listed in the requested order.
R, P, Q
(R: 2.79, P: 0.94, Q: 0.33)
